Target: MS2 coat protein, dlFG mutant (Escherichia phage MS2, UniProt P03612, del68-81insG)
Experiment: 4 mM Mg2+; no ligand; RNA-MaP array; 100 mM Tris-HCl pH 7.5, 80 mM KCl, 4 mM MgCl2, 0.1 mg/mL BSA, 1 mM DTT, 0.01 mg/mL yeast tRNA, 0.01% Tween-20; protein 1.5 nM to 3 uM; 37 C (Table S3)
Details: chain copies: 2; label: tethered by stalled RNA polymerase
quantity: Kd (nM)
Numbers only, in nM.

Would you mind telling me what Kd value was observed for Eterna 7653873 (Same State - Theophylline B) (ssRNA) RNA: UGUAUGUGAUUUGAUACCAGACCAGCUGGUGGUCCAUGAGGAACACCCAUGGAGGUUUGGGUCCCUUGGCAGCAAAUCGCAUACU ?
83.2

// query: Eterna 13502 (Sensor v3, turn-off variant 2) (ssRNA) RNA: AGUAGAUCUACGCUUGCGUGGAUCUGCAAUGUAGGUGUUACAUGAGGAUCACCCAUGUCCUCAUUUGCUCGUCUUAG
312

---
Any idea what Kd was measured for Eterna 5979585 (Sensor, turn-off variant 1) (ssRNA) RNA: UACACUGCAUGAGGAUCAAACAUGAGGAUCACCCAUGUAUAGCAGGCUUUUUGUACGUCUUAUAAUUAUGUAGUGUA ?
15.1
